- protocolDetails: Stability in mouse plasma assessed as parent compound remaining at 20 uM measured after 1 hr by LC-MS/MS analysis
recordedMetric: Stability (%)

{"smilesText": "CC(=O)NCCCC[C@H](NC(=O)[C@H](Cc1c[nH]c2ccccc12)NC(C)=O)C(=O)N[C@@H](CCC(=O)C=[N+]=[N-])C(=O)OC(C)C", "reading": 0}
{"smilesText": "CCCCCCCCCCCCCCCC(=O)N[C@@H](CCCCNC(C)=O)C(=O)N[C@@H](CCC(=O)C=[N+]=[N-])C(=O)OC(C)C", "reading": 30}
{"smilesText": "CC(=O)NCCCC[C@H](NC(=O)Cc1c[nH]c2ccccc12)C(=O)N[C@@H](CCC(=O)C=[N+]=[N-])C(=O)OC(C)C", "reading": 0}
{"smilesText": "CC(=O)NCCCC[C@H](NC(=O)C12CC3CC(CC(C3)C1)C2)C(=O)N[C@@H](CCC(=O)C=[N+]=[N-])C(=O)OC(C)C", "reading": 0}
{"smilesText": "CC(=O)NCCCC[C@H](NC(=O)[C@@H]1Cc2ccccc2CN1C(C)=O)C(=O)N[C@@H](CCC(=O)C=[N+]=[N-])C(=O)OC(C)C", "reading": 0}
{"smilesText": "CC(=O)NCCCC[C@H](NC(=O)OC12CC3CC(CC(C3)C1)C2)C(=O)N[C@@H](CCC(=O)C=[N+]=[N-])C(=O)OC(C)C", "reading": 4}
{"smilesText": "CC(=O)NCCCC[C@H](NC(=O)OCC1c2ccccc2-c2ccccc21)C(=O)N[C@@H](CCC(=O)C=[N+]=[N-])C(=O)OC(C)C", "reading": 2}
{"smilesText": "CCCCCCCC(=O)N[C@@H](CCCCNC(C)=O)C(=O)N[C@@H](CCC(=O)C=[N+]=[N-])C(=O)OC(C)C", "reading": 0}
{"smilesText": "CC(=O)NCCCC[C@H](NC(=O)[C@H](Cc1c[nH]c2ccccc12)NC(=O)C(C)(C)C)C(=O)N[C@@H](CCC(=O)C=[N+]=[N-])C(=O)OC(C)C", "reading": 0}
{"smilesText": "CC(=O)NCCCC[C@H](NC(=O)[C@@H](N)Cc1c[nH]c2ccccc12)C(=O)N[C@@H](CCC(=O)C=[N+]=[N-])C(=O)OC(C)C", "reading": 0}
{"smilesText": "CC(=O)NCCCC[C@H](NC(=O)[C@@H]1Cc2ccccc2CN1)C(=O)N[C@@H](CCC(=O)C=[N+]=[N-])C(=O)OC(C)C", "reading": 0}
{"smilesText": "CC(=O)NCCCC[C@H](NC(=O)OC(C)(C)C)C(=O)N[C@@H](CCC(=O)C=[N+]=[N-])C(=O)OC(C)C", "reading": 1}
